Recorded values, source the supplement of paper PMC13380429.

# Tested on: Vero E6
# assay_method_text: cell viability relative to DMSO; higher = less toxic
# cond: 72 h; 1 nM
reported_property: cell viability
Kindly write the number and append the unit.

[[record]]
molecule = "O=c1cc(-c2cccc3c2Sc2ccccc2S3)oc(N2CCOCC2)c1"
system_under_test = "Vero E6"
reported_property = "cell viability"
result = "97.5%"

[[record]]
molecule = "O=C(NCCN1CCC2(CC1)C(=O)NCN2c1cccc(F)c1)c1ccc2ccccc2c1"
system_under_test = "Vero E6"
reported_property = "cell viability"
result = "103%"

[[record]]
molecule = "N=C(N)NCCCC[C@@H]1NC(=O)CCSSC[C@@H](C(N)=O)NC(=O)[C@@H]2CCCN2C(=O)[C@H](Cc2c[nH]c3ccccc23)NC(=O)[C@H](CC(=O)O)NC(=O)CNC1=O [eptifibatide]"
system_under_test = "Vero E6"
reported_property = "cell viability"
result = "105%"


Would you kindly share the measured cell viability for COc1cc(C(=O)OCCCN2CCCN(CCCOC(=O)c3cc(OC)c(OC)c(OC)c3)CC2)cc(OC)c1OC [dilazep] ?
98.5%

---

# Tested on: U2OS
# assay_method_text: cell viability relative to DMSO; higher = less toxic
# cond: 72 h; 10000 nM
Where a name gives a salt, the structure may show the parent alone.
Measured cell viability of individual entries
Give just the numeric value; % need not be written.

Recorded cell viability, per entry:
[[record]]
molecule = "CN(C)CCCN1c2ccccc2CCc2ccccc21"
reported_property = "cell viability"
value_units = "%"
readout_number = 90.4

[[record]]
molecule = "O=C1NC(=O)/C(=C/c2ccc3nccc(-c4ccncc4)c3c2)S1"
reported_property = "cell viability"
value_units = "%"
readout_number = 37.9

[[record]]
molecule = "O=C(Nc1cccc(Nc2ncc(Br)c(NCCc3cnc[nH]3)n2)c1)N1CCCC1"
reported_property = "cell viability"
value_units = "%"
readout_number = 55.9


Would you kindly share the measured cell viability for `Cc1sc2c(c1C)C(c1ccc(Cl)cc1)=N[C@@H](CC(N)=O)c1nnc(C)n1-2` ?
43.6

Would you kindly share the measured cell viability for `CN1CCC(OC(c2ccccc2)c2ccccc2)CC1` ?
98.6

Would you kindly share the measured cell viability for COc1cccc(C2(O)CCCCC2CN(C)C)c1 (configuration not stated) [TRAMADOL HYDROCHLORIDE] ?
99.9

Would you kindly share the measured cell viability for `Nc1cccc(-c2cc3c(Oc4cccc(O)c4)ncnc3[nH]2)c1` ?
25.2

Would you kindly share the measured cell viability for `O=C(NCCN1CCC2(CC1)C(=O)NCN2c1cccc(F)c1)c1ccc2ccccc2c1` ?
71

Would you kindly share the measured cell viability for `O=C1NC(=O)c2c1c1c3ccccc3[nH]c1c1[nH]c3ccccc3c21` ?
93.7

---

Measured cell viability of individual entries
# System: Calu-3
# assay_method_text: cell viability relative to DMSO; higher = less toxic
# cond: 72 h; 1 nM
Give just the numeric value; % need not be written.

[[record]]
molecule = "COc1cc2ncnc(Nc3ccc(Oc4ccccc4)cc3)c2cc1OC [SRC-kinase-inhibitor-I]"
readout_number = 88.9

[[record]]
molecule = "Oc1ccc2c(c1)CC[C@H](c1ccccc1)[C@@H]2c1ccc(OCCN2CCCC2)cc1 [lasofoxifene]"
readout_number = 88.7

[[record]]
molecule = "CC1(C)NC(=O)N(c2ccc([N+](=O)[O-])c(C(F)(F)F)c2)C1=O [nilutamide]"
readout_number = 106

[[record]]
molecule = "COc1ccc2c(c1OC)C(=O)O[C@@H]2[C@H]1c2c(cc3c(c2OC)OCO3)CCN1C [noscapine]"
readout_number = 97.3

[[record]]
molecule = "CN(C(=O)CN(CCO)CC(=O)N(C)C(C)(C)Cc1ccccc1)C(C)(C)Cc1ccccc1 [oxethazaine]"
readout_number = 94.4

[[record]]
molecule = "CCC(C)SSc1ncc[nH]1 (stereo not drawn) [PX-12]"
readout_number = 106

[[record]]
molecule = "COc1ccc(Cl)c(Nc2ncnc3cc(OCC4CCN(C)CC4)c(OC)cc23)c1"
readout_number = 94.5

[[record]]
molecule = "CCCCNNC(=O)c1ccc(Br)cc1 [UF-010]"
readout_number = 101


Can you look up cell viability on Calu-3 for CCCCCCCCCCCCCCCC(=O)OC[C@H](O)[C@H]1OC(=O)C(O)=C1O [L-ascorbyl-6-palmitate] ?
98.9

Can you look up cell viability on Calu-3 for Cc1cc(C(C)(C)C)c(O)c(C)c1CC1=NCCN1 [oxymetazoline] ?
92.1

Can you look up cell viability on Calu-3 for `CN1CCN(c2ccc(OC(F)(F)F)c(Nc3ncc4c(n3)-c3c(c(C(N)=O)nn3CCO)CC4)c2)CC1` ?
100

Can you look up cell viability on Calu-3 for C[N+]1(C)CCC(OC(=O)C(O)(c2ccccc2)C2CCCC2)C1 (stereo not drawn) [glycopyrrolate] ?
102

Can you look up cell viability on Calu-3 for N[C@H]1C[C@@H]1c1ccccc1 (racemic) [tranylcypromine] ?
92.5

Can you look up cell viability on Calu-3 for O=C(Nc1cccc(Nc2ncc(Br)c(NCCc3cnc[nH]3)n2)c1)N1CCCC1 [BX-912] ?
108

Can you look up cell viability on Calu-3 for CC(OC(=O)OC1CCCCC1)OC(=O)C1=C(CSc2nnnn2CCN(C)C)CS[C@@H]2[C@H](NC(=O)Cc3csc(N)n3)C(=O)N12 (stereo partly drawn) [cefotiam-cilexetil] ?
96.4

---

Measured relative viability EC50 of individual entries
# System: Vero E6
# assay_method_text: relative viability EC50 (midpoint between 100% and the lowest measured viability); higher = less toxic
# cond: 72 h

Recorded relative viability EC50, per entry:
[[record]]
compound = "CCc1ccc(OCc2ccccc2C(=O)Nc2ccc3nc(C)cc(N)c3c2)cc1"
result = "2.69 µM"

[[record]]
compound = "C[C@@]12CCc3occc3[C@H]1CC[C@@]13C[C@@H](CC[C@H]12)[C@@](O)(CO)C3"
result = "> 10 µM"

[[record]]
compound = "NCCC(Oc1ccc(C(F)(F)F)cc1)c1ccccc1 (stereo not drawn)"
result = "> 10 µM"

[[record]]
compound = "Cc1cc(C(C)(C)C)c(O)c(C)c1CC1=NCCN1"
result = "> 10 µM"

[[record]]
compound = "COc1cc(C(=O)OCCCN2CCCN(CCCOC(=O)c3cc(OC)c(OC)c(OC)c3)CC2)cc(OC)c1OC"
result = "> 10 µM"


Would you kindly share the measured relative viability EC50 for `CC(=O)[C@]1(N)Cc2c(O)c3c(c(O)c2[C@@H](O[C@H]2C[C@H](O)[C@H](O)CO2)C1)C(=O)c1ccccc1C3=O` ?
1.87 µM

Would you kindly share the measured relative viability EC50 for `CNC(=O)c1nn(C)c2c1C(C)(C)Cc1cnc(Nc3ccc(N4CCN(C)CC4)cc3)nc1-2` ?
0.409 µM

Would you kindly share the measured relative viability EC50 for NS(=O)(=O)c1cc(-c2nnn[nH]2)c(NCc2cccs2)cc1Cl [azosemide] ?
> 10 µM

---

# Test system: U2OS
# assay_method_text: relative viability EC50 (midpoint between 100% and the lowest measured viability); higher = less toxic
# cond: 72 h
reported_property: relative viability EC50 (nM)
Give just the numeric value; nM need not be written.

[[record]]
given_smiles = "Cc1noc2c1-c1ccccc1C(c1ccc(Cl)cc1)=N[C@H]2CC(N)=O"
system_under_test = "U2OS"
value_units = "nM"
readout_number = 1420

[[record]]
given_smiles = "CN1CC[C@H](c2c(O)cc(O)c3c(=O)cc(-c4ccccc4Cl)oc23)[C@H](O)C1"
system_under_test = "U2OS"
value_units = "nM"
readout_number = 280

[[record]]
given_smiles = "O=C(NC1(c2ccccc2)CC1)c1c(CN2CCC(N3CCCCC3)CC2)c(-c2cccc(C(F)(F)F)c2)nc2cc(Br)ccc12"
system_under_test = "U2OS"
value_units = "nM"
readout_number = 2810


Could you now look at the following compound, please?
Would you kindly share the measured relative viability EC50 for `Cc1cc2nc3c(=O)[nH]c(=O)nc-3n(C)c2cc1C=O` ?
3000

---

# Test system: Caco-2
# assay_method_text: cell viability relative to DMSO; higher = less toxic
# cond: 72 h; 1000 nM
Measured cell viability of individual entries
Give just the numeric value; % need not be written.

Recorded cell viability, per entry:
[[record]]
given_smiles = "O=C1NC(=O)/C(=C/c2ccc(-c3ccc(F)cc3O)o2)S1"
readout_number = 105

[[record]]
given_smiles = "CCc1ccc(OCc2ccccc2C(=O)Nc2ccc3nc(C)cc(N)c3c2)cc1"
readout_number = 91.9

[[record]]
given_smiles = "C[C@H](CCC(=O)O)[C@H]1CC[C@H]2[C@@H]3[C@H](O)C[C@@H]4C[C@H](O)CC[C@]4(C)[C@H]3C[C@H](O)[C@]12C"
readout_number = 100


Could you now look at the following compound, please?
Can you look up cell viability on Caco-2 for `Nc1nccc2c1ncn2[C@@H]1O[C@H](CO)[C@@H](O)[C@@H]1O` ?
89.2
